study.system: PDI (Homo sapiens, UniProt P07237)
Construct: FLAG; made in house; host or cells: Escherichia coli Origami B (DE3)
Sequence (P07237 18-508): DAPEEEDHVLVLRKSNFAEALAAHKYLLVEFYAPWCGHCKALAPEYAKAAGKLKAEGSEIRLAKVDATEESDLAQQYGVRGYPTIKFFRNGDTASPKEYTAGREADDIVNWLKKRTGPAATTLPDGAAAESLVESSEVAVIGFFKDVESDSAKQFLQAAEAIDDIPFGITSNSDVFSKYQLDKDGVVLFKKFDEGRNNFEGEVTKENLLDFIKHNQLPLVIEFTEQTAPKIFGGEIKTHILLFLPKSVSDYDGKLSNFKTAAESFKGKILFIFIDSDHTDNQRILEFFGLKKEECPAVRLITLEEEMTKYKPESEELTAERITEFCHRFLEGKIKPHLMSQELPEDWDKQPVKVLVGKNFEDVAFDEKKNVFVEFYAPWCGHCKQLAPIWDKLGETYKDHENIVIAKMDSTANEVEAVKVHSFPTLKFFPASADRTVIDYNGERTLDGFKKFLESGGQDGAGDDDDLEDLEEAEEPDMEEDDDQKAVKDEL
assay.explanation: Di-eosin-GSSG disulfide reductase assay, PDI
Assay type: biochemical
observed.property: IC50

| compound | endpoint.result |
| --- | --- |
| O=C(O)c1cc(O)c(O)c(O)c1 [Gallic Acid, 3,4,5-trihydroxybenzoic acid] | > 500 µM |

---

study.system: PDI (Homo sapiens, UniProt P07237)
Construct: FLAG; made in house; host or cells: Escherichia coli Origami B (DE3)
assay.explanation: Di-eosin-GSSG disulfide reductase assay, PDI
Assay type: biochemical
details: Table 1; IC50 curves on PDI activity (FIGS. 13B-E, 17A-E); read-out: Relative PDI inhibition
observed.property: IC50

| compound | observed.property | endpoint.result |
| --- | --- | --- |
| O=c1c(O)cc([C@H]2Oc3cc(O)cc(O)c3C[C@H]2O)cc2c([C@H]3Oc4cc(O)cc(O)c4C[C@H]3O)cc(O)c(O)c12 [Theaflavin] | IC50 | > 500 µM |
| O=C1C[C@@H](c2ccccc2)Oc2cc(O)cc(O)c21 [Pinocembrin] | IC50 | > 500 µM |
| O=C(O[C@@H]1Cc2c(O)cc(O)cc2O[C@H]1c1ccc(O)c(O)c1)c1cc(O)c(O)c(O)c1 [Catechin 3-gallate] | IC50 | > 20 µM |
| Oc1cc(O)c2c(c1)O[C@H](c1cc(O)c(O)c(O)c1)[C@H](O)C2 [EGC, epigallocatechin] | IC50 | > 500 µM |
